Catalogue of Relative ET-A IC50 values
# studySystem: Endothelin-1 receptor (Homo sapiens)
# assayComment: Competitive binding to Endothelin A receptor by displacement of [125I]ET1 (Relative IC50 was calculated as IC50 of compound/IC50 of TBC11251)

- molecule: "Cc1noc(NS(=O)(=O)c2ccsc2C(=O)Nc2c(C)c(CC#N)c(C)c(CC#N)c2C)c1Cl"
  Relative ET-A IC50: 3110
- molecule: "COc1cc(C#N)c(NC(=O)c2sccc2S(=O)(=O)Nc2onc(C)c2Cl)c(OC)c1OC"
  Relative ET-A IC50: 0.01
- molecule: "Cc1nc(C)c(NC(=O)c2sccc2S(=O)(=O)Nc2onc(C)c2Cl)c(C)n1"
  Relative ET-A IC50: 0.25
- molecule: "Cc1noc(NS(=O)(=O)c2ccsc2C(=O)Nc2c(C)c(C)c(C)c(C)c2C)c1Cl"
  Relative ET-A IC50: 1.97
- molecule: "Cc1cc(C)c(N(C)C)c(C)c1NC(=O)c1sccc1S(=O)(=O)Nc1onc(C)c1Cl"
  Relative ET-A IC50: 0.07
- molecule: "COC(=O)Cc1c(C)cc(C)c(NC(=O)c2sccc2S(=O)(=O)Nc2onc(C)c2Cl)c1C"
  Relative ET-A IC50: 0.07
- molecule: "Cc1cc(C)c(NC(=O)c2sccc2S(=O)(=O)Nc2onc(C)c2Cl)c(C)c1CO"
  Relative ET-A IC50: 0.04
- molecule: "Cc1cc2c(cc1C(CCBr)C(=O)c1sccc1S(=O)(=O)Nc1onc(C)c1Cl)OCO2 (centres undefined)"
  Relative ET-A IC50: 38.4
- molecule: "CC(=O)OCc1c(C)cc(C)c(NC(=O)c2sccc2S(=O)(=O)Nc2noc(C)c2Cl)c1C"
  Relative ET-A IC50: 0.03
- molecule: "Cc1cc(C)c(OC(N)=O)c(C)c1NC(=O)c1sccc1S(=O)(=O)Nc1onc(C)c1Cl"
  Relative ET-A IC50: 0.34
- molecule: "COc1c(C)cc(C)c(NC(=O)c2sccc2S(=O)(=O)Nc2onc(C)c2Cl)c1C"
  Relative ET-A IC50: 0.06
- molecule: "Cc1cc2c(cc1C(C)C(=O)c1sccc1S(=O)(=O)Nc1onc(C)c1Cl)OCO2 (centres undefined)"
  Relative ET-A IC50: 5.63
- molecule: "Cc1cc(C)c(NC(=O)c2sccc2S(=O)(=O)Nc2noc(C)c2Cl)c(C)c1CC#N"
  Relative ET-A IC50: 0.06
- molecule: "Cc1cc(C)c(OC(=S)N(C)C)c(C)c1NC(=O)c1sccc1S(=O)(=O)Nc1onc(C)c1Cl"
  Relative ET-A IC50: 0.09
- molecule: "CC(=O)Oc1c(C)cc(C)c(NC(=O)c2sccc2S(=O)(=O)Nc2onc(C)c2Cl)c1C"
  Relative ET-A IC50: 0.11
- molecule: "Cc1cc(C)c(OCC(=O)O)c(C)c1NC(=O)c1sccc1S(=O)(=O)Nc1onc(C)c1Cl"
  Relative ET-A IC50: 0.05
- molecule: "Cc1cc(C)c(NC(=O)c2sccc2S(=O)(=O)Nc2onc(C)c2Cl)c(C)c1C#N"
  Relative ET-A IC50: 0.1
- molecule: "COC(=O)c1c(C)cc(C)c(NC(=O)c2sccc2S(=O)(=O)Nc2onc(C)c2Cl)c1C"
  Relative ET-A IC50: 0.21
- molecule: "Cc1cc2c(cc1C(CC(=O)O)C(=O)c1sccc1S(=O)(=O)Nc1onc(C)c1Cl)OCO2 (centres undefined)"
  Relative ET-A IC50: 5.36
